Data origin: ChEMBL document CHEMBL1961873

- system.tested: Hepatocyte growth factor receptor (Homo sapiens) (UniProt P08581)
- Sequence (P08581 whole entry): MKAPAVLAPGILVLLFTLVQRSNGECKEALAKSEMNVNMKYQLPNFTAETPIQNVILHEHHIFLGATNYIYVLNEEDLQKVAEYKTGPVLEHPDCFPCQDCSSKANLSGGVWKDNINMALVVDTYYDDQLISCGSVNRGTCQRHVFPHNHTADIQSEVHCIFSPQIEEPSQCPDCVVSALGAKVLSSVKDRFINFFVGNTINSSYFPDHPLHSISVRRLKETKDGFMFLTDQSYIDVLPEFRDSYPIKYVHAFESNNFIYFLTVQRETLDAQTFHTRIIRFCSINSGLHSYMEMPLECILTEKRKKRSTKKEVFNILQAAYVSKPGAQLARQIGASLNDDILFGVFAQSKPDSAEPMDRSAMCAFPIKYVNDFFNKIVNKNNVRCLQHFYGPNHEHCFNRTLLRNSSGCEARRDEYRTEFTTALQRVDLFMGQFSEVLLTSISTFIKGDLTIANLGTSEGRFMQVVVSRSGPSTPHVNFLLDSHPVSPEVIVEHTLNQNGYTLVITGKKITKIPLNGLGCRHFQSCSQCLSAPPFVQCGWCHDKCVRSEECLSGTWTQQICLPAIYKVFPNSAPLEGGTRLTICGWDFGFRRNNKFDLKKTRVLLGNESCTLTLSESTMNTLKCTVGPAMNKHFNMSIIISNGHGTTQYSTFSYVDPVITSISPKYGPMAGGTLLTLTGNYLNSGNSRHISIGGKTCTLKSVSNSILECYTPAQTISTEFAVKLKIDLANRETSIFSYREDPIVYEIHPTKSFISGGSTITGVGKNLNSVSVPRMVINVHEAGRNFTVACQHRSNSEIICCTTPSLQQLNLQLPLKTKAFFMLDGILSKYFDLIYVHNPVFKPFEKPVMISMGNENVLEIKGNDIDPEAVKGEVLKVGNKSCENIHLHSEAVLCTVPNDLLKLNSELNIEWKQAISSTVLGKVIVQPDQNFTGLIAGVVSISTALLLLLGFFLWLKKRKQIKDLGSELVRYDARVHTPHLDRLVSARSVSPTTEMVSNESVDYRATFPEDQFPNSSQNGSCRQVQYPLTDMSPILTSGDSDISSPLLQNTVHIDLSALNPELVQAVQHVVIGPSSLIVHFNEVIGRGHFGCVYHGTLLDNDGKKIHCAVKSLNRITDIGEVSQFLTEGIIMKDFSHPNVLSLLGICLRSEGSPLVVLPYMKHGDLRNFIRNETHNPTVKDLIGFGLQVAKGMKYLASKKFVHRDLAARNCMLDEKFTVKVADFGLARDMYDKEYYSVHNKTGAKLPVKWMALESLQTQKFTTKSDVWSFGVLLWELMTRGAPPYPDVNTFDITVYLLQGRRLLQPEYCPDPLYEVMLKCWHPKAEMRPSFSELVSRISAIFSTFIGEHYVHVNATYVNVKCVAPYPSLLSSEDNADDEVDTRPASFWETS
- stated.conditions: at 0.1 µM
value.kind: inhibition (%)
Answers are plain numbers, in %.

cpd.smiles: COc1cc(C)c(N(C)C(=O)CN(C)C)cc1Nc1nc(Nc2cccc(F)c2C(N)=O)c2cc[nH]c2n1
system.tested: Hepatocyte growth factor receptor (Homo sapiens) (UniProt P08581)
unit.label: %
inhibition: -0.92

cpd.smiles: C[C@@H](Oc1cc(-n2cnc3ccc(OCC4CCN(C)CC4)cc32)sc1C(N)=O)c1ccccc1Cl
system.tested: Hepatocyte growth factor receptor (Homo sapiens) (UniProt P08581)
unit.label: %
inhibition: 2.19

cpd.smiles: Fc1ccc(-c2nc3n(c2-c2ccncc2)CCS3)cc1
system.tested: Hepatocyte growth factor receptor (Homo sapiens) (UniProt P08581)
unit.label: %
inhibition: 8.26

cpd.smiles: CCc1cccc(CC)c1/C=C/c1cncc(C(=O)NC)c1
system.tested: Hepatocyte growth factor receptor (Homo sapiens) (UniProt P08581)
unit.label: %
inhibition: -0.26

cpd.smiles: CN(C)CCCNc1nccc(-c2c(-c3ccc(F)cc3)nn3cc(C(F)(F)F)ccc23)n1
system.tested: Hepatocyte growth factor receptor (Homo sapiens) (UniProt P08581)
unit.label: %
inhibition: 3.45

cpd.smiles: CN(C)c1ccc2c(c1)/C(=C/Nc1ccc(S(N)(=O)=O)cc1)C(=O)N2
system.tested: Hepatocyte growth factor receptor (Homo sapiens) (UniProt P08581);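 further: reported values are means of MET inhibition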
unit.label: %
inhibition: -0.65

Give measured inhibition for every item shown.
1. NS(=O)(=O)c1ccc(N/N=C2\C(=O)Nc3ccc(C(=O)NCCCn4ccnc4)cc32)cc1
2. NC(=O)c1cc(-c2ccncc2)cc(-c2ccccc2)c1N
3. O=C(Nc1n[nH]c2cc(-c3ccccc3)ccc12)C1CC1
4. O=C1Nc2ccccc2/C1=C/Nc1ccc(-n2cncn2)cc1

Reply:
2.76
0.99
0.84
5.14
